# targetOrSystem: Delta-type opioid receptor (Homo sapiens)
# Sequence (P41143 whole entry): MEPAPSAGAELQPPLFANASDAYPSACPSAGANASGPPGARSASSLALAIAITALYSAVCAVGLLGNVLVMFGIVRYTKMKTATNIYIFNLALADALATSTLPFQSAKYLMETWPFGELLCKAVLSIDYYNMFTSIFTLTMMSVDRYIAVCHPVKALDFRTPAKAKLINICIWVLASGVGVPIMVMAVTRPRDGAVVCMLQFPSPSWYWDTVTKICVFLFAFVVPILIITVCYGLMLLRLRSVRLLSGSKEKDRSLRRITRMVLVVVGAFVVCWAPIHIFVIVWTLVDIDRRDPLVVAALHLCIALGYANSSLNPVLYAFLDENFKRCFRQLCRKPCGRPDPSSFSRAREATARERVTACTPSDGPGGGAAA
# assayComment: Displacement of [3H]DADLE from delta opioid receptor (unknown origin) expressed in HEK293T cells after 1.5 hrs by radioligand binding assay
experimentalEndpoint: Ki

Here are 2 compounds together with their reported answers.
# molSmiles, targetOrSystem, valueObserved
data = [
    ("C=C(C)CC(=O)O[C@H]1C[C@@H](C(=O)OC)[C@]2(C)CC[C@H]3C(=O)O[C@H](c4ccoc4)C[C@]3(C)[C@H]2C1=O", "Delta-type opioid receptor (Homo sapiens)", "> 10 µM"),
    ("COC(=O)[C@@H]1C[C@H](OC(=O)/C=C/c2ccccc2C(F)(F)F)C(=O)[C@H]2[C@@]1(C)CC[C@H]1C(=O)O[C@H](c3ccoc3)C[C@]21C", "Delta-type opioid receptor (Homo sapiens)", "> 10 µM"),
]

Continue with the compound presented below.
(Q) Param readout = Ki; param system = Delta-type opioid receptor (Homo sapiens); param query = C/C=C(\C)C(=O)O[C@H]1C[C@@H](C(=O)OC)[C@]2(C)CC[C@H]3C(=O)O[C@H](c4ccoc4)C[C@]3(C)[C@H]2C1=O ; response: value
(A) > 10 µM

====

# targetOrSystem: UniProtKB P35372
# Sequence (P35372 whole entry): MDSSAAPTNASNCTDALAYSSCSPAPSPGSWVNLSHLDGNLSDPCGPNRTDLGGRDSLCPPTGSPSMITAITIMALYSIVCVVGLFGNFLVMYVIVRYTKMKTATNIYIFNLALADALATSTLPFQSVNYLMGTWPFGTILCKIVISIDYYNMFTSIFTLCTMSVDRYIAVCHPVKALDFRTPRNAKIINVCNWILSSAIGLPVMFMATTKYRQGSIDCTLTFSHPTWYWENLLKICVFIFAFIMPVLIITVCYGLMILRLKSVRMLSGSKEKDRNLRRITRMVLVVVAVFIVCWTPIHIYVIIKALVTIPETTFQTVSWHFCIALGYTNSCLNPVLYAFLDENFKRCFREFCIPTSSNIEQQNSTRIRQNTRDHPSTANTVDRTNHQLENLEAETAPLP
experimentalEndpoint: Ki

Here are 2 molecules together with their reported answers.
# molSmiles, Ki
data = [
    ("COC(=O)[C@@H]1C[C@H](OC(=O)/C=C/c2cc(C(F)(F)F)ccc2C(F)(F)F)C(=O)[C@H]2[C@@]1(C)CC[C@H]1C(=O)O[C@H](c3ccoc3)C[C@]21C", "> 10 µM"),
    ("COC(=O)[C@@H]1C[C@H](OC(=O)/C=C/c2ccc(OC)cc2)C(=O)[C@H]2[C@@]1(C)CC[C@H]1C(=O)O[C@H](c3ccoc3)C[C@]21C", "> 10 µM"),
]

(Q) # query: Ki of entry COC(=O)[C@@H]1C[C@H](OC(=O)/C=C/c2ccc(OC)cc2OC)C(=O)[C@H]2[C@@]1(C)CC[C@H]1C(=O)O[C@H](c3ccoc3)C[C@]21C
(A) > 10 µM

====

Quick note: these are Ki numbers for system: UniProtKB P35372

I need Ki for every entry listed below, if you could help.
1. COC(=O)[C@@H]1C[C@H](OC(=O)/C=C/c2ccc([N+](=O)[O-])cc2)C(=O)[C@H]2[C@@]1(C)CC[C@H]1C(=O)O[C@H](c3ccoc3)C[C@]21C
2. C/C=C(\C)C(=O)O[C@H]1C[C@@H](C(=O)OC)[C@]2(C)CC[C@H]3C(=O)O[C@H](c4ccoc4)C[C@]3(C)[C@H]2C1=O
3. COC(=O)[C@@H]1C[C@H](OC(=O)/C=C/c2cc(OC)ccc2OC)C(=O)[C@H]2[C@@]1(C)CC[C@H]1C(=O)O[C@H](c3ccoc3)C[C@]21C

(A)
1: > 10 µM; 2: > 10 µM; 3: > 10 µM
